# Assayed System: UniProtKB P54687
# Sequence (P54687 1-386): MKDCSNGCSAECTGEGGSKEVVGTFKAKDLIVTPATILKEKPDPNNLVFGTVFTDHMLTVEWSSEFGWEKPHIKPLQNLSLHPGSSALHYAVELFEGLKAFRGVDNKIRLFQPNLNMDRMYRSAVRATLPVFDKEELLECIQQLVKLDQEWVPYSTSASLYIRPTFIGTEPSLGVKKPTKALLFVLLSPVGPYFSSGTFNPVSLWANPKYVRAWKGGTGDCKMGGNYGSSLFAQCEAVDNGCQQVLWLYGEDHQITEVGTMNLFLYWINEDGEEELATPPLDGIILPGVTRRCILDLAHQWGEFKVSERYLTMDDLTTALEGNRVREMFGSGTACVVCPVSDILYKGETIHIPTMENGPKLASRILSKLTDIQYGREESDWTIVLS
# Experiment Notes: In vitro coupled enzyme assay (glutamate dehydrogenase, NADH formation), human BCATc
# Study Conditions: recombinant human BCATc, 37° C., 25 mM phosphate buffer pH 7.8; several values in a cell = repeat determinations; read-out: RhBCATc
Would you mind telling me the reported pIC50 of each entry?
Answers are plain numbers, as −log10 of the molar value.

Look at each compound and report its pIC50.
1. O=C(NNS(=O)(=O)c1cccc(Cl)c1)c1ccc2ccccc2c1
2. Cc1c(C(=O)NNS(=O)(=O)c2ccccc2)oc2ccccc12
3. O=C(NNS(=O)(=O)c1ccccc1C(F)(F)F)c1ccc2ncccc2c1
4. O=C(NNS(=O)(=O)c1cccc(F)c1)c1ccc2oc3ccccc3c2c1
5. O=C(NNS(=O)(=O)c1ccccc1)c1ccc2c(c1)CCO2
6. O=C(NNS(=O)(=O)c1ccccc1)c1cc2cc(Cl)cc(Cl)c2o1

[5.24, 4.40, 4.77, 5.45, 4.75, 5.41]

Batch of 6 compounds: report pIC50 for each.
1. CCc1ccc(S(=O)(=O)NNC(=O)c2ccc3ccccc3c2)cc1
2. CCOc1cccc2cc(C(=O)NNS(=O)(=O)c3ccccc3)oc12
3. O=C(NNS(=O)(=O)c1ccccc1Br)c1cc2cc(Cl)cc(Cl)c2o1
4. CS(=O)(=O)Nc1ccc2oc(C(=O)NNS(=O)(=O)c3ccccc3)cc2c1
5. Cc1cccc(S(=O)(=O)NNC(=O)c2ccc3ncccc3c2)c1
6. O=C(NNS(=O)(=O)c1ccc(F)c(Cl)c1)c1ccc2oc3ccccc3c2c1

4.26
4.89
4.84
4.59
4.92
4.52

// for each compound in input: emit pIC50
1. O=C(NNS(=O)(=O)c1cccc(Cl)c1Cl)c1ccc2oc3ccccc3c2c1
2. N#Cc1cccc(S(=O)(=O)NNC(=O)c2cc3cc(Cl)ccc3o2)c1
3. Cc1cccc2cc(C(=O)NNS(=O)(=O)c3ccccc3)oc12
4. O=C(NNS(=O)(=O)c1ccccc1Br)c1ccc2oc3ccccc3c2c1
5. COc1c(C(=O)NNS(=O)(=O)c2ccccc2)oc2ccc(Cl)cc12

[4.95, 3.77, 4.82, 5.26, 5.43]

----------
# Assayed System: human Branched Chain Amino Acid Aminotransferase cytosolic form (hBCATc) (Homo sapiens, UniProt P54687)
# Experiment Notes: In vitro coupled enzyme assay (glutamate dehydrogenase, NADH formation), human BCATc
# Study Conditions: recombinant human BCATc, 37° C., 25 mM phosphate buffer pH 7.8; several values in a cell = repeat determinations; read-out: RhBCATc
Quantity Measured: IC50 (µM)
Give bare numbers, in µM.

Chem Smiles: O=C(NNS(=O)(=O)c1cccc(Cl)c1Cl)c1ccc2ccccc2c1
Quantity Measured: IC50
Units Label: µM
Assay Value: 18.1
--
Chem Smiles: Cc1ccc2oc(C(=O)NNS(=O)(=O)c3cccc(Cl)c3C)cc2c1
Quantity Measured: IC50
Units Label: µM
Assay Value: 3.28
--
Chem Smiles: COc1ccc2cc(C(=O)NNS(=O)(=O)c3ccccc3)oc2c1
Quantity Measured: IC50
Units Label: µM
Assay Value: 7.26
--
Chem Smiles: O=C(NNS(=O)(=O)c1ccc(F)cc1Cl)c1cc2cc(Cl)ccc2o1
Quantity Measured: IC50
Units Label: µM
Assay Value: 25
--
Chem Smiles: Cc1ccc2oc(C(=O)NNS(=O)(=O)c3ccccc3OC(F)(F)F)cc2c1
Quantity Measured: IC50
Units Label: µM
Assay Value: 21.2
--
Chem Smiles: O=C(NNS(=O)(=O)c1ccc(F)c(Cl)c1)c1ccc2ccccc2c1
Quantity Measured: IC50
Units Label: µM
Assay Value: 59.9

# input molecule: O=C(NNS(=O)(=O)c1ccccc1)c1cccc2oc3ccccc3c12 ; wanted: its IC50
90.5

----------
# Assayed System: human Branched Chain Amino Acid Aminotransferase cytosolic form (hBCATc) (Homo sapiens, UniProt P54687)
# Construct: made in house; host or cells: E. coli BL21(DE3)
# Experiment Notes: In vitro coupled enzyme assay (glutamate dehydrogenase, NADH formation), human BCATc
# Format: biochemical
# Study Conditions: recombinant human BCATc, 37° C., 25 mM phosphate buffer pH 7.8; several values in a cell = repeat determinations; read-out: RhBCATc
Quantity Measured: log10(IC50) (log10 of the value in µM)
Kindly note that the scale is log10 and the underlying IC50 is in µM.

Look over these answered cases.
Chem Smiles: O=C(NNS(=O)(=O)c1ccccc1OC(F)(F)F)c1ccc2oc3ccccc3c2c1
log10(IC50): 0.45
--
Chem Smiles: O=C(NNS(=O)(=O)c1c(F)cccc1F)c1ccc2oc3ccccc3c2c1
log10(IC50): 1.80

Provide each entry's log10(IC50) from the list below.
1. Cc1ccc(S(=O)(=O)NNC(=O)c2ccc3ccccc3c2)cc1
2. O=C(NNS(=O)(=O)c1ccccc1)c1cc2cc([N+](=O)[O-])ccc2o1

1. 1.16
2. 0.71

// each molecule listed below needs its log10(IC50)
1. N#Cc1cccc(S(=O)(=O)NNC(=O)c2ccc3oc4ccccc4c3c2)c1
2. COc1c(C(=O)NNS(=O)(=O)c2ccc(F)cc2)oc2c(OC)cccc12

[2.14, 1.82]

----------
For each record, write down the corresponding log10 of IC50.
# Assayed System: rat BCAT cytosolic form (Rattus norvegicus)
# Sequence (P54690 whole entry): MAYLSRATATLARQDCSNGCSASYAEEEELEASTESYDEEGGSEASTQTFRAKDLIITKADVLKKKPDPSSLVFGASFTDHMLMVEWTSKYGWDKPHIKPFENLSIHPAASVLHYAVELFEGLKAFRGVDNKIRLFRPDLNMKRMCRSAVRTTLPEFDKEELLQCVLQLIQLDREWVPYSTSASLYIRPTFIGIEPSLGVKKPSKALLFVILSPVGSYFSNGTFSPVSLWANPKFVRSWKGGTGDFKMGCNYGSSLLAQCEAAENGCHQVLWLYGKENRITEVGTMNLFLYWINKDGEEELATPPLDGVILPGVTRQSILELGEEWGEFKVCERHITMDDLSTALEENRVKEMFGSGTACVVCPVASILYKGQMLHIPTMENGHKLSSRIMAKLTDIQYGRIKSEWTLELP
# Experiment Notes: In vitro coupled enzyme assay (glutamate dehydrogenase, NADH formation), rat BCATc
# Study Conditions: recombinant rat BCATc, 37° C., 25 mM phosphate buffer pH 7.8; several values in a cell = repeat determinations; read-out: RrBCATc
Note: values are log10 of IC50 expressed in nM.

Compound: O=C(NNS(=O)(=O)c1ccccc1C(F)(F)F)c1ccc2ccccc2c1
log10 of IC50: 2.72
--
Compound: O=C(NNS(=O)(=O)c1ccc(F)cc1)c1cc2cc(Cl)ccc2o1
log10 of IC50: 3.61
--
Compound: Cc1ccc(F)cc1S(=O)(=O)NNC(=O)c1cc2cc(Cl)ccc2o1
log10 of IC50: 3.11
--
Compound: O=C(NNS(=O)(=O)c1ccccc1)c1ccc2[nH]c3c(c2c1)CCCC3
log10 of IC50: 2.11
--
Compound: O=C(NNS(=O)(=O)c1c(F)cccc1F)c1ccc2oc3ccccc3c2c1
log10 of IC50: 3.77

Each compound below has a reported value. Please supply its log10 of IC50.
1. O=C(NNS(=O)(=O)c1ccccc1)c1cc2cc(Cl)cc(Cl)c2o1
2. O=C(NNS(=O)(=O)c1ccc(F)c(F)c1)c1cc2cc(Cl)ccc2o1
3. O=C(NNS(=O)(=O)c1ccccc1OC(F)(F)F)c1cc2cc(Cl)cc(Cl)c2o1
4. O=C(NNS(=O)(=O)c1ccccc1C(F)(F)F)c1cc2cc(Cl)cc(Cl)c2o1

[1.70, 4.16, 3.18, 2.63]

// batch mode: one log10 of IC50 value per listed entry
1. CCOc1c(C(=O)NNS(=O)(=O)c2ccccc2)oc2ccc(-c3ccccc3)cc12
2. O=C(NNS(=O)(=O)c1ccccc1Br)c1cc2cc(Cl)cc(Cl)c2o1
3. Cc1cccc2cc(C(=O)NNS(=O)(=O)c3ccccc3)oc12
4. COc1ccc2c(OC)c(C(=O)NNS(=O)(=O)c3ccccc3)oc2c1
5. O=C(NNS(=O)(=O)c1ccccc1OC(F)(F)F)c1cnc2ccccc2c1 [Example 137]
6. O=C(NNS(=O)(=O)c1cccc(Br)c1)c1ccc2oc3ccccc3c2c1
7. O=C(NNS(=O)(=O)c1ccc(F)cc1Cl)c1cc2cc(Cl)ccc2o1

2.18
3.28
2.38
2.08
4.15
2.48
3.76

Please state log10 of IC50 for every compound in the list that follows.
1. O=C(NNS(=O)(=O)c1ccccc1Cl)c1ccc2ccccc2c1
2. Nc1ccc2oc(C(=O)NNS(=O)(=O)c3ccccc3)cc2c1

1. 3.26
2. 2.04

----------
Provide the recorded melting point for the entries that follow.

Molecule: O=C(NNS(=O)(=O)c1ccccc1)c1cnc2ccccc2c1 (hydrate or solvate)
melting point: 249 to 250 °C
--
Molecule: Cc1ccc2oc(C(=O)NNS(=O)(=O)c3ccccc3)c(C)c2c1 (hydrate or solvate)
melting point: 225.9 to 227.1 °C
--
Molecule: O=C(NNS(=O)(=O)c1ccccc1)c1cccc2cccnc12 (hydrate or solvate)
melting point: 173 to 175 °C
--
Molecule: O=C(NNS(=O)(=O)c1ccccc1)c1cc2cc(Cl)ccc2[nH]1
melting point: 79.1 to 79.9 °C
--
Molecule: Cc1ccc(F)cc1S(=O)(=O)NNC(=O)c1ccc2oc3ccccc3c2c1
melting point: 210.1 to 210.5 °C
--
Molecule: COc1c(C(=O)NNS(=O)(=O)c2ccccc2)oc2cc3ccccc3cc12 (hydrate or solvate)
melting point: 205.7 to 207.1 °C

Look up melting point for the entries below, preserving their order.
1. O=C(NNS(=O)(=O)c1cccc(Cl)c1)c1cnc2ccccc2c1 (hydrate or solvate)
2. O=C(NNS(=O)(=O)c1ccccc1C(F)(F)F)c1cc2cc(Cl)cc(Cl)c2o1
3. O=C(NNS(=O)(=O)c1ccccc1)c1ccc2c(c1)CCO2
4. O=C(NNS(=O)(=O)c1cccc(Cl)c1)c1cc2cc(Cl)cc(Cl)c2o1
5. O=C(NNS(=O)(=O)c1ccccc1Cl)c1cc2cc(Cl)ccc2o1
6. Cc1cccc2oc(C(=O)NNS(=O)(=O)c3ccccc3)cc12 (hydrate or solvate)

1: 249.5 to 250.4 °C; 2: 245.6 to 247.6 °C; 3: 181 to 183 °C; 4: 245.6 to 245.7 °C; 5: 200.3 to 200.5 °C; 6: 217 to 218 °C
